Target: human PD-1 / PD-L1-Ig binding on Jurkat cell line over-expressing human PD-1 (Jurkat-PD-1) (Homo sapiens)
Construct: expressed in transfected cells; host or cells: Jurkat
Assay: Jurkat-PD-1 Cell Binding High-Content Screening Assay (CBA)
Format: cell-based
Settings: Jurkat-PD-1 cells, PE-labeled PD-L1-Ig 20 nM final; read-out: Jurkat HPD1_PDL1 IC50
Where a SMILES comes first, the peptide text is derived from it. Bridges are numbered along the chain shown (N, C = ends). [ ]: non-standard residue; d: D form. Bip = N[C@@H](Cc1ccc(-c2ccccc2)cc1)C(=O)O; Cha = N[C@@H](CC1CCCCC1)C(=O)O; Dap = NC[C@H](N)C(=O)O
# IC50 listing for each entry below
Could you give me the number in µM? Just the number is fine.

compound="CC(C)C[C@H]1NC(=O)[C@H](CN)NC(=O)[C@H](C(C)C)NC(=O)[C@H](Cc2ccc(-c3ccccc3)cc2)NC(=O)[C@H](C(C)C)NC(=O)[C@H](Cc2c[nH]c3ccccc23)NC(=O)[C@H](CC(=O)O)NC(=O)[C@H](Cc2ccc(O)cc2)NC(=O)[C@H](Cc2ccccc2)NC(=O)CSC[C@@H](C(=O)NCC(N)=O)NC(=O)[C@H](CO)NC(=O)[C@H](C(C)C)NC(=O)[C@H](CC2CCCCC2)NC(=O)[C@H](CC(N)=O)NC1=O [Compound 1412] ({CH2CO}-FYDWV[Bip]V[Dap][dL]N[Cha]VSCG-NH2; thioether N-14)" observed_result=0.0269

// next item, IC50 requested
## Input Identify measured IC50 corresponding to CCCC[C@H]1NC(=O)[C@H](CCCN)NC(=O)[C@H]([C@@H](C)CC)NC(=O)[C@H](Cc2ccc(-c3ccccc3)cc2)NC(=O)[C@H](C(C)C)NC(=O)[C@H](Cc2c[nH]c3ccccc23)NC(=O)[C@H](CC(=O)O)NC(=O)[C@H](Cc2ccc(OCC(=O)O)cc2)NC(=O)[C@H](Cc2ccc(OCC(=O)O)cc2)NC(=O)CSC[C@@H](C(=O)N[C@@H](C)C(N)=O)NC(=O)[C@H]([C@@H](C)O)NC(=O)[C@H](C(C)C)NC(=O)[C@H](CC2CCCCC2)NC(=O)[C@H](CCN)NC1=O
## Output 0.0115

----------
Molecular target: human PD-1 / PD-L1-Ig binding on Jurkat cell line over-expressing human PD-1 (Jurkat-PD-1) (Homo sapiens, UniProt Q15116)
Construct: expressed in transfected cells; host or cells: Jurkat
Sequence (Q15116 25-288): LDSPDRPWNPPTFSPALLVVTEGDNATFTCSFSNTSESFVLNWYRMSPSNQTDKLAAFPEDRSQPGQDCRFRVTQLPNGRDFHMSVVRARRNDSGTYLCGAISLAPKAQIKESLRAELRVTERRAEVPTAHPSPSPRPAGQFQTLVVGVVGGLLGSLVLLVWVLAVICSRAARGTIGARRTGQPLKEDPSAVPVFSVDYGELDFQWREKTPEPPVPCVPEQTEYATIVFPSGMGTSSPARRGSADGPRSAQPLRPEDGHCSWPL
Assay: Jurkat-PD-1 Cell Binding High-Content Screening Assay (CBA)
Type: cell-based
Settings: Jurkat-PD-1 cells, PE-labeled PD-L1-Ig 20 nM final; read-out: Jurkat HPD1_PDL1 IC50
Where a SMILES comes first, the peptide text is derived from it. Bridges are numbered along the chain shown (N, C = ends). [ ]: non-standard residue; d: D form. Bip = N[C@@H](Cc1ccc(-c2ccccc2)cc1)C(=O)O; Orn = NCCC[C@H](N)C(=O)O; Dab = NCC[C@H](N)C(=O)O
# pIC50 listing for each entry below
Bear in mind: pIC50 is minus log10 of a mol/L concentration; give just that figure.

Record excerpt, results attached:
molecule=CC(C)C[C@H]1NC(=O)[C@H](CCCN)NC(=O)[C@H](CCC(=O)O)NC(=O)[C@H](Cc2ccc(-c3ccccc3)cc2)NC(=O)[C@H](C(C)C)NC(=O)[C@H](Cc2c[nH]c3ccccc23)NC(=O)[C@H](CC(=O)O)NC(=O)[C@H](Cc2ccc(OCC(=O)O)cc2)NC(=O)[C@H](CN)NC(=O)CSC[C@@H](C(=O)N[C@@H](C)C(N)=O)NC(=O)[C@H]([C@@H](C)O)NC(=O)[C@H](C(C)C)NC(=O)[C@H](Cc2cscn2)NC(=O)[C@H](CCN)NC1=O observed_result=7.59
molecule="CC(C)C[C@@H]1NC(=O)[C@H](CCCNC(=N)N)NC(=O)[C@@H](CC(C)C)NC(=O)[C@@H](CCCCN)NC(=O)[C@H](CCCNC(=N)N)NC(=O)[C@H](Cc2ccc(-c3ccccc3)cc2)NC(=O)[C@H](C(C)C)NC(=O)[C@H](Cc2c[nH]c3ccccc23)NC(=O)[C@H](CC(=O)O)NC(=O)[C@H](Cc2ccc(O)cc2)NC(=O)[C@H](CC(N)=O)NC(=O)CSC[C@@H](C(=O)N[C@@H](C)C(N)=O)NC(=O)[C@H]([C@@H](C)O)NC(=O)[C@H](C(C)C)NC1=O [Compound 1013] ({CH2CO}-NYDWV[Bip]R[dK][dL]RLVTCA-NH2; thioether N-14)" observed_result=6.89

## Input Identify measured pIC50 corresponding to CC(C)C[C@@H]1NC(=O)[C@H](Cc2c[nH]c3ccccc23)NC(=O)[C@H](CC(=O)O)NC(=O)[C@H](Cc2ccc(O)cc2)NC(=O)[C@H](Cc2ccccc2)NC(=O)CSC[C@@H](C(=O)NCC(N)=O)NC(=O)[C@H]([C@@H](C)O)NC(=O)[C@H](C(C)C)NC(=O)[C@H](CC(C)C)NC(=O)[C@H](CC(N)=O)NC(=O)[C@@H](CC(C)C)NC(=O)[C@H](CCCN)NC(=O)[C@H](C(C)C)NC(=O)[C@H](Cc2ccc(-c3ccccc3)cc2)NC1=O [Compound 1064] ({CH2CO}-FYDWL[Bip]V[Orn][dL]NLVTCG-NH2; thioether N-14)
## Output 7.29

## Input Identify measured pIC50 corresponding to CC(C)C[C@@H]1NC(=O)[C@H](CCN)NC(=O)[C@@H](CC(C)C)NC(=O)[C@H](CC(=O)O)NC(=O)[C@H](C(C)C)NC(=O)[C@H](Cc2ccc(-c3ccccc3)cc2)NC(=O)[C@H](C(C)C)NC(=O)[C@H](Cc2c[nH]c3ccccc23)NC(=O)[C@H](CC(=O)O)NC(=O)[C@H](Cc2ccc(O)cc2)NC(=O)[C@H](CC(N)=O)NC(=O)CSC[C@@H](C(=O)N[C@@H](C)C(N)=O)NC(=O)[C@H]([C@@H](C)O)NC(=O)[C@H](C(C)C)NC1=O [Compound 1033] ({CH2CO}-NYDWV[Bip]VD[dL][Dab]LVTCA-NH2; thioether N-14)
## Output 7.53
